Entry source: paper PMC3422351

assay: Caco-2 cell homogenate stability assay; format: in vitro ADME, human; conditions: human, Caco-2, pH 7.4, Caco-2 cell homogenate; separate experiment [d] with 1 and 3 tested together, mean ± SEM; read-out: t 1/2 (min, Caco-2)
Square brackets hold non-standard residues; d marks the D form. Peptide text beside a SMILES is read from it. ξ: configuration not given here. ξGly(octyl) = CCCCCCCCC(N)C(=O)O
METRIC: half-life

COMPOUND | METRIC | RESULT
CCCCCCCCC(N)C(=O)N[C@@H](Cc1ccc(O)cc1)C(=O)N1CCC[C@H]1C(=O)N[C@@H](Cc1c[nH]c2ccccc12)C(=O)N[C@@H](Cc1ccccc1)C(N)=O (stereo partly shown) [Compound 3] (H-[ξGly(octyl)]YPWF-NH2) | half-life | 1.29 h

---

experiment: Caco-2 cell permeability assay; format: in vitro ADME, human; conditions: human, Caco-2, pH 7.4, across Caco-2 cell monolayers; separate experiment [d] with 1 and 3 tested together, mean ± SEM
Square brackets hold non-standard residues; d marks the D form. Peptide text beside a SMILES is read from it. ξ: configuration not given here. ξGly(octyl) = CCCCCCCCC(N)C(=O)O

COMPOUND | Papp A→B at 150 min, 200 µM, ×10⁻⁶ cm/s
CCCCCCCCC(N)C(=O)N[C@@H](Cc1ccc(O)cc1)C(=O)N1CCC[C@H]1C(=O)N[C@@H](Cc1c[nH]c2ccccc12)C(=O)N[C@@H](Cc1ccccc1)C(N)=O (some centres unmarked) [Compound 3] (H-[ξGly(octyl)]YPWF-NH2) | 9.01
NC(=O)[C@H](Cc1ccccc1)NC(=O)[C@H](Cc1c[nH]c2ccccc12)NC(=O)[C@@H]1CCCN1C(=O)[C@@H](N)Cc1ccc(O)cc1 [Compound 1, Tyr-Pro-Trp-Phe-NH2, reference compound] | 0.1
